The measurements presented in this section are drawn from patent US4554274A.

Kindly supply the reported log10 of LD50 at 168 h values for the records listed here.
- experiment-summary: acute toxicity (LD50) in mice
- Type: in vivo
- run-conditions: mouse, in vivo, po; male NMRI-mice, p.o., mortality on 7th day; read-out: LD50 p.o.
Short version: log10 scale, LD50 at 168 h, µmol/kg.

Request: // Input: CCC1C2CC3C4N(C)c5ccc(Br)cc5C45CC(C2C5O)[N+]3(CCN2CCOCC2)C1O (centres unmarked) . Output its log10 of LD50 at 168 h only.
Result: 2.67

Request: // fetch log10 of LD50 at 168 h given entry CCC1C2CC3C4N(C)c5ccc(Br)cc5C45CC(C2C5O)[N+]3(Cc2ccccc2)C1O (centres unmarked)
Result: 3.36

Request: Look up and state reported log10 of LD50 at 168 h for CCC1C2CC3C4N(C)c5ccc(Br)cc5C45CC(C2C5O)[N+]3(CCN2CCCC2)C1O (centres unmarked)
Result: 2.60

Request: Complete the entry with log10 of LD50 at 168 h for CCCC[N+]12C(O)C(CC)C3CC1C1N(C)c4ccc(Br)cc4C14CC2C3C4O (centres unmarked)
Result: 2.30

Request: Output measured log10 of LD50 at 168 h for this item: CCC1C2CC3C4N(C)c5ccc(Br)cc5C45CC(C2C5O)[N+]3(CC(O)CN2CCCCC2)C1O (centres unmarked)
Result: 2.74

Request: # return recorded log10 of LD50 at 168 h for entry CCC1C2CC3C4N(C)c5ccc(Br)cc5C45CC(C2C5O)[N+]3(CCN2CCCCC2)C1O (centres unmarked)
Result: 2.17

Request: Provide only the value of recorded log10 of LD50 at 168 h for CCC1C2CC3C4N(C)c5ccc(Br)cc5C45CC(C2C5O)[N+]3(CCCN(CC)CC)C1O (centres unmarked)
Result: 2.84

---

I'd be grateful if you could share measured LD50 at 168 h for these entries.
- experiment-summary: acute toxicity (LD50) in mice
- Assay type: in vivo
- run-conditions: mouse, in vivo, ip; male NMRI-mice, i.p., mortality on 7th day; read-out: LD50 i.p.
Param answer (str): number followed by unit.

Request: For CCCCCCCCCC[N+]12C(O)C(CC)C3CC1C1N(C)c4ccc(Br)cc4C14CC2C3C4O (stereo not shown) [Example 15.b] , write its LD50 at 168 h.
Result: 72 µmol/kg

Request: Could you please provide reported LD50 at 168 h for CCC1C2CC3C4N(C)c5ccc(Br)cc5C45CC(C2C5O)[N+]3(CCN2CCCC2)C1O (stereo not shown) [Example 8.b] ? Thanks!
Result: 115 µmol/kg

Request: State its LD50 at 168 h for this molecule: CCCC[N+]12C(O)C(CC)C3CC1C1N(C)c4ccc(Br)cc4C14CC2C3C4O (stereo not shown) [Example 14.b]
Result: 76 µmol/kg

Request: Read the entry CCC1C2CC3C4N(C)c5ccc(Br)cc5C45CC(C2C5O)[N+]3(CCN2CCCCC2)C1O (stereo not shown) [Example 9.b] and write its reported LD50 at 168 h.
Result: 60 µmol/kg

Request: Read the entry CCC1C2CC3C4N(C)c5ccc(Br)cc5C45CC(C2C5O)[N+]3(CCN2CCOCC2)C1O (stereo not shown) [Example 10] and write its reported LD50 at 168 h.
Result: 45 µmol/kg

Request: Using the record for CCC1C2CC3C4N(C)c5ccc(Br)cc5C45CC(C2C5O)[N+]3(CCCN(CC)CC)C1O (stereo not shown) [Example 19.b] , state its measured LD50 at 168 h.
Result: 122 µmol/kg

Request: State its LD50 at 168 h for this molecule: CCC1C2CC3C4N(C)c5ccc(Br)cc5C45CC(C2C5O)[N+]3(CC)C1O (stereo not shown) [Example 12.b]
Result: 122 µmol/kg

Request: Could you please provide reported LD50 at 168 h for CCC1C2CC3C4N(C)c5ccc(Br)cc5C45CC(C2C5O)[N+]3(CC(O)c2ccccc2)C1O (stereo not shown) [Example 21] ? Thanks!
Result: 250 µmol/kg

Request: Using known records, supply LD50 at 168 h for CCC1C2CC3C4N(C)c5ccc(Br)cc5C45CC(C2C5O)[N+]3(Cc2ccccc2)C1O (stereo not shown) [Example 16.b]
Result: 483 µmol/kg

Request: Tell me LD50 at 168 h reported for CCC1C2CC3C4N(C)c5ccc(Br)cc5C45CC(C2C5O)[N+]3(C)C1O (stereo not shown) [Example 11.b]
Result: 190 µmol/kg
